target: MEK1 (Oryctolagus cuniculus, UniProt P29678); test: ATP^biotin probe-labelling competition; settings: read-out: IC50 (ATP), MEK1; free ATP vs 2 μM ATP^biotin, KSR2-MEK1 complexes
Sequence (P29678 whole entry): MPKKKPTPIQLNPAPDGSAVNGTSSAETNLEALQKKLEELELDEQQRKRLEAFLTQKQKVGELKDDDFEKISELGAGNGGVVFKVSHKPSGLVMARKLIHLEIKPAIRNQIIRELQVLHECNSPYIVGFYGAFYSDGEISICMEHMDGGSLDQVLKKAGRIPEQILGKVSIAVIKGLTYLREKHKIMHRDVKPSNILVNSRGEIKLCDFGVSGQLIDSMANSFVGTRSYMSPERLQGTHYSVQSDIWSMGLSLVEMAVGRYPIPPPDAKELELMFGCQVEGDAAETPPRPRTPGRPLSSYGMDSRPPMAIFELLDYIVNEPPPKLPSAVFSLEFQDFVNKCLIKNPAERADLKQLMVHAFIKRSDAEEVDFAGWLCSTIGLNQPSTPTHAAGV
Property: IC50
Just the number plus its unit, please.

# lookup: IC50 of Nc1ncnc2c1ncn2[C@@H]1O[C@H](COP(=O)(O)OP(=O)(O)OP(=O)(O)O)[C@@H](O)[C@H]1O [ATP, reference compound]
133 µM

----------
molecular target: KSR2 in purified KSR2-MEK1 complexes (Homo sapiens, UniProt Q6VAB6); assay: ATP^biotin probe-labelling competition; type: binding
Sequence (Q6VAB6 634-950): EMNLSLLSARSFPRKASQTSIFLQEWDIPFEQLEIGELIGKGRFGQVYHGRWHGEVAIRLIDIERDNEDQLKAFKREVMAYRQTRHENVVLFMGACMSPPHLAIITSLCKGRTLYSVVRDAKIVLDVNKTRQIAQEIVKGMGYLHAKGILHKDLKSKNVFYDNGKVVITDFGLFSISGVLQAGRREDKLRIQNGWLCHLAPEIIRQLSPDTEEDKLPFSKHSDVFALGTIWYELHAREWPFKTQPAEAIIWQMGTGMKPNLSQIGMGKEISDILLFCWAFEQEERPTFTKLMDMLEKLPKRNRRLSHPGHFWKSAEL
Sequence (P29678 whole entry partner): as the sequence (P29678 whole entry) above
Property: IC50

# lookup: IC50 of COc1cc2ncnc(Nc3ccc(Oc4ccccc4)c(C)c3C)c2cc1OC.Cl [APS-3-77]
> 10 µM

----------
biological target: KSR2 in purified KSR2-MEK1 complexes (Homo sapiens, UniProt Q6VAB6); test: ATP^biotin probe-labelling competition; type: binding; conditions: read-out: IC50 (ATP), KSR2; free ATP vs 2 μM ATP^biotin, KSR2-MEK1 complexes
Property: IC50 (µM)
All answers are understood in µM, so give the number only.

# lookup: IC50 of Nc1ncnc2c1ncn2[C@@H]1O[C@H](COP(=O)(O)OP(=O)(O)OP(=O)(O)O)[C@@H](O)[C@H]1O [ATP, reference compound]
86
